- EXPERIMENTAL_SYSTEM: IRAK-1 (Homo sapiens (Human), UniProt P51617)
- Sequence (P51617 whole entry, species assumed): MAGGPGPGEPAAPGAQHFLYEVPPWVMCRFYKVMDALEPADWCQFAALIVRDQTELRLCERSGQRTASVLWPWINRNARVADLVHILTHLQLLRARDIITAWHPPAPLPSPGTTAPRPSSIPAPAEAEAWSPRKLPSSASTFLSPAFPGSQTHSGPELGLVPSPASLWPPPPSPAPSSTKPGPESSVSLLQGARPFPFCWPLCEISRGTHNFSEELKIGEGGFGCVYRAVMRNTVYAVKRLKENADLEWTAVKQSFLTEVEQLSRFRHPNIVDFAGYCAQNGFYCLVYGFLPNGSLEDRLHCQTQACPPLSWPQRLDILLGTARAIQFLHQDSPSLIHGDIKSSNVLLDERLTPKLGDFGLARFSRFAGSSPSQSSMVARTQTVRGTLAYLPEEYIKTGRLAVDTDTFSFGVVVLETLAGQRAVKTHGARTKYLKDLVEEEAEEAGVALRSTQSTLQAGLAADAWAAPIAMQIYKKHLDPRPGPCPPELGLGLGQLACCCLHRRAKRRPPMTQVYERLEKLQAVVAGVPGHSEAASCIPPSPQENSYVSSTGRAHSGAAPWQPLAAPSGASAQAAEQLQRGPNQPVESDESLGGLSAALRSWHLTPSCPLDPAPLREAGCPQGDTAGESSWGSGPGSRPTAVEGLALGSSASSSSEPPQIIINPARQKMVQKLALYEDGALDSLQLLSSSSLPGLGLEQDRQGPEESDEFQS
- TEST_DETAILS: In vitro IRAK-1 kinase assay
- EXPERIMENTAL_CONTEXT: purified recombinant IRAK-1, 50 uM ATP, 33P peptide phosphorylation
Quick list: IC50 per entry.
METRIC: IC50 (nM)

1. CC(O)C1CCN(c2ccc(Cl)cc2NC(=O)c2cnn3cccnc23)C1 (centres unmarked) [Example 44] ... 897
2. NCCCOc1cc2ncccc2cc1NC(=O)c1csc2cncnc12 [Example 51] ... 529
3. O=C(Nc1cc2ccccc2cc1OC1CCC(O)CC1)c1cnn2cccnc12 (centres unmarked) [Example 55] ... 817
4. CN(C)CC1CCN(c2ccc(Cl)cc2NC(=O)c2cnn3cc(O)cnc23)CC1 [Example 37] ... 307
5. O=C(Nc1cc(Cl)ccc1N1CCC(CO)CC1)c1csc2cncnc12 [Example 49] ... 700
